Measured growth by item
# Tested on: EKVX NSCLC
# ASSAY NAME: NCI-60 one-dose screen, 48 h (100 = growth as untreated, 0 = no growth, -100 = all killed)
# PROTOCOL CONDITIONS: 10 µM unless noted
The panel holds about 83,000 compounds, 20% with a hit somewhere; the sample as a whole holds those more often. Active and inactive are the calls of the source. How the source made its calls: active means growth percent below 10; inactive means the rest.

SMILES ENTRY: Nc1nc(-c2ccnc(Cl)c2)nn1-c1nc2ccccc2s1
growth: 96.5% (inactive)

SMILES ENTRY: COc1ccc(Sc2ccc3[nH]c(=O)nc(N)c3c2)cc1
growth: 95.5% (inactive)

SMILES ENTRY: Nc1cc(Br)c(-c2nnc(CCC(=O)c3nc4ccccc4[nH]3)o2)c(Br)c1
growth: 95.6% (inactive)

SMILES ENTRY: CCCCCCCC/C=C\CCCCCCCCOc1cccc(CC(=O)NCC[N+]2(C)CCCCC2)c1
growth: 78.7% (inactive)

SMILES ENTRY: COc1ccc(C(=O)COc2cccc(/C=C3\CSc4ccc(C)cc4C3=O)c2)cc1
growth: 106% (inactive)

SMILES ENTRY: Cn1c(=O)c2c(-c3ccccc3F)n(-c3ccc4c(c3)OCO4)cc2n(C)c1=O
growth: 87.6% (inactive)

SMILES ENTRY: COC(=O)c1c2c(c(C)[n+]([O-])c1C)C(=O)C=C(NCc1ccc(F)c(Cl)c1)C2=O
growth: -63.3% (active)

SMILES ENTRY: O=C1C(OCCOc2ccccc2)=C(OCCOc2ccccc2)C(=O)c2ccccc21
growth: 103% (inactive)

* * *

# Tested on: OVCAR-5 ovarian
# ASSAY NAME: NCI-60 one-dose screen, 48 h (100 = growth as untreated, 0 = no growth, -100 = all killed)
# PROTOCOL CONDITIONS: 10 µM unless noted
Compounds without any hit were thinned out: in the full panel of roughly 83,000, 20% have a hit.
// boundary case: growth equal to 80% maps to F; strictly smaller maps to T

COMPOUND: C=C1CC[C@@H]2[C@@](C)(CCC[C@]2(C)C(=O)O)[C@@H]1CC[C@H](CO)CCO
DISCRETE LABEL: F
//
COMPOUND: COc1cc(C2CC(=O)Nc3c2ccc2ccccc32)cc(Br)c1OC (centres undefined)
DISCRETE LABEL: T
//
COMPOUND: COc1cc(/C=N/NC(=O)c2cnn3c2NC(c2ccccc2)C3)cc(OC)c1OC (centres undefined)
DISCRETE LABEL: F
//
COMPOUND: O=[N+]([O-])c1cc2c(cc1Br)-c1ccccc1C2
DISCRETE LABEL: F
//
COMPOUND: CC(C)N1CCN(c2ccc(OC[C@H]3CO[C@](Cn4cncn4)(c4ccc(Cl)cc4Cl)O3)cc2)CC1
DISCRETE LABEL: F
//
COMPOUND: O=[N+]([O-])c1cc2c(cc1Br)C1C(C3C2C(Cl)(Cl)C(Cl)=C(Cl)C3(Cl)Cl)C(Cl)(Cl)C(Cl)=C(Cl)C1(Cl)Cl (centres undefined)
DISCRETE LABEL: F
//
COMPOUND: COc1cc(C2=NN(c3ccc(S(N)(=O)=O)cc3)C(c3ccc(Cl)cc3)C2)cc(OC)c1OC (centres undefined)
DISCRETE LABEL: T
//
COMPOUND: Nc1cc2[nH]c(=O)c3ccccc3c2cc1Br
DISCRETE LABEL: T
//
COMPOUND: Cn1c2c(cc(S(=O)(=O)c3ccccc3)c1=O)CCc1c-2cnn1-c1cccc(Cl)c1
DISCRETE LABEL: F
//
COMPOUND: c1ccc(-c2n(Cc3ccc4ccccc4c3)c3ccccc3[n+]2Cc2ccc3ccccc3c2)cc1
DISCRETE LABEL: T
//
COMPOUND: CCCCCn1c(=N)n(CC(O)COc2cccc(C)c2)c2ccccc21 (centres undefined)
DISCRETE LABEL: T
//
COMPOUND: COC1(OC)C2(Cl)C=C(c3ccccc3)C1(Cl)C(Cl)=C2Cl (centres undefined)
DISCRETE LABEL: F
//
COMPOUND: C[C@@H](Oc1cc(-c2cnn(C3CC4(CNC4)C3)c2)cnc1N)c1c(Cl)ccc(F)c1Cl
DISCRETE LABEL: T
//
COMPOUND: COC(=O)/C=C1/CCC2C3CCC4=CC(=O)C(Br)CC4(C)C3C(=O)CC12C (centres undefined)
DISCRETE LABEL: F
//
COMPOUND: NC(=S)N/N=C1\c2ccccc2-c2c(F)c(F)c(F)c(F)c21
DISCRETE LABEL: F
//
COMPOUND: O=C(NC1CC1)c1cc2n(n1)CC(c1ccccc1)N2 (centres undefined)
DISCRETE LABEL: F
//
COMPOUND: O=S(=O)(Nc1ccc(Cl)c(Cl)c1)c1ccc(-c2cnc(C3CC3)o2)cc1
DISCRETE LABEL: T
//
COMPOUND: CCCN1CCN(c2ccc3nc(-c4ccc5nc(-c6ccc(C(F)(F)F)cc6)[nH]c5c4)[nH]c3c2)CC1
DISCRETE LABEL: T
